Data origin: ChEMBL document CHEMBL1201862

For each of the compounds below, state its GI50.
- System: DMS-114
- TEST SUMMARY: NCI tumour cell line growth inhibition, 48 h
The source made the active and inactive calls. Rule as the data show it: active = GI50 up to about 1.1 µM and inactive = higher.

Some entries whose results are on file:
COc1ccc(C)cc1C1CCC(=O)O1 (configuration not stated)    > 100 µM (inactive)
O=C(O)CP(=S)(S)c1ccccc1 (configuration not stated)    > 100 µM (inactive)
CCOC(=O)c1ncoc1[C@H]1COC(C)(C)O1    > 100 µM (inactive)

Hi team, please reply with GI50 for each item in this list.
1. CCC1=NC(CO)[C@H](c2ccccc2)O1 (some centres not stated)
2. O=C1C2Cc3ccccc3CN2C(=O)N1CN1CCN(CN2C(=O)C3Cc4ccccc4CN3C2=O)CC1 (configuration not stated)
3. CC1CC(=O)C2CC(CO)=CCCC2C1(C)CC/C(=C/CO)CO (configuration not stated)
4. O=C1c2ccccc2C(=O)N1CCn1nc(-c2ccccc2)cc(-c2ccccc2)c1=O
5. C=C1C[C@]23C[C@@]1(O)CC[C@H]2[C@@]12C=C[C@H](O)[C@@](C)(C(=O)O1)[C@H]2[C@@H]3C(=O)O

Result block:
> 100 µM (inactive)
> 100 µM (inactive)
> 100 µM (inactive)
> 100 µM (inactive)
> 100 µM (inactive)

###

- Tested on: HCT-116
- TEST SUMMARY: NCI tumour cell line growth inhibition, 48 h
Calls of active or inactive are those of the source. No stated cut-off is given here; in the data, active = GI50 up to about 1.1 µM and inactive = higher.
Consider the following compounds; for each one, report its GI50.

The following compounds have reported results that may help.
CCOC(=O)C1=C(C)N(NC(=O)c2ccccc2)C2(O)CCCC12C(=O)OCC (stereo not given)    > 100 µM (inactive)
Cc1nc(-c2nc([N+](=O)[O-])c([N+](=O)[O-])[nH]2)cs1    > 100 µM (inactive)
N#Cc1cccc(/C=N/C23CC4CC(CC(C4)C2)C3)c1    57.3 µM (inactive)
CN(C)/C(=N\C#N)N(Cc1ccccc1)Cc1ccccc1    53.5 µM (inactive)
C=C1CC(C)(c2ccc(Nc3nc4ccccc4c4occc34)cc2)OC1=O (stereo not given)    1.34 µM (inactive)

For every record below, what is its GI50?
1. O=C1Nc2ccc(Br)cc2/C1=N/Nc1ccc([N+](=O)[O-])cc1[N+](=O)[O-]
2. Cn1cc(NC(=O)Nc2cc(C(=O)Nc3cc(C(=O)Nc4ccc5cc(S(=O)(=O)O)cc(S(=O)(=O)O)c5c4)n(C)c3)n(C)c2)cc1C(=O)Nc1cc(C(=O)Nc2ccc3cc(S(=O)(=O)O)cc(S(=O)(=O)O)c3c2)n(C)c1
3. CC1(C)CCc2cc3c(cc2O1)OC(C)(C)C1c2c(ccc4c2CCC(C)(C)O4)OC31 (stereo not given)
4. Cc1cc(Cc2c(C)c(C)c(Cc3cc(C)cc(C(C)(C)C)c3O)c(C)c2C)c(O)c(C(C)(C)C)c1
5. CCCCCCCCCCCC(=O)OCC1OC(n2cc(F)c(=O)[nH]c2=O)C(N)C(O)C1O (stereo not given)

Result block:
1: 1.55 µM (inactive); 2: > 100 µM (inactive); 3: > 100 µM (inactive); 4: > 100 µM (inactive); 5: 88.1 µM (inactive)

###

- Test system: RXF 393
- TEST SUMMARY: NCI tumour cell line growth inhibition, 48 h
The source made the active and inactive calls. Rule as the data show it: active = GI50 up to about 1.1 µM and inactive = higher.
Exercise: state measured GI50 for each of the compounds provided.

Cc1cc(NS(=O)(=O)c2ccc(NO)cc2)no1    > 100 µM (inactive)
COc1ccc2cc1Oc1ccc(cc1)C[C@@H]1c3cc(c(OC)cc3CCN1C)Oc1c(OC)c(OC)cc3c1[C@H](C2)N(C)CC3    1.44 µM (inactive)
CC1CC(c2ccc([N+](=O)[O-])cc2)=Nc2ccccc2S1 (stereo not given)    17.5 µM (inactive)
Cc1ccc(S(=O)(=O)N2CCN(S(=O)(=O)c3ccc(C)cc3)CCN(S(=O)(=O)c3ccc(C)cc3)Cc3cc(C#N)c(C#N)cc3CN(S(=O)(=O)c3ccc(C)cc3)CC2)cc1    > 100 µM (inactive)
Cc1cc2nc3c(N)nn(CCN(C)C)c3nc2cc1C    30.4 µM (inactive)

Provide GI50 for all items below, preserving their order.
1. OC1(c2ccc(Cl)cc2)c2c(ccc3c2OCO3)C2=NCCN21 (stereo not given)
2. O=C1C=C(Nc2ccccc2C(=O)CC(=O)C(=O)Nc2ccc(Cl)c(Cl)c2)c2ccccc2C1=O
3. CC1=NC(C)(C)[N+]([O-])=C1
4. O=c1c2cc(Br)ccc2nc(CNc2ccccc2)n1-c1ccccc1

Result block:
1. 26.7 µM (inactive)
2. 71.3 µM (inactive)
3. > 10 µM (inactive)
4. 15.7 µM (inactive)

So for COC1=CC(=O)C(C2(OC(C)C)OC(=O)C(Cl)=C2Cl)=CC1=O (stereo not given) , the logged GI50 turned out to be > 100 µM (inactive)

###

- Test system: EKVX
- TEST SUMMARY: NCI tumour cell line growth inhibition, 48 h
The source made the active and inactive calls. Cut-off read from the data, not from the text of the source: active = GI50 up to about 1.1 µM and inactive = higher.
Please provide measured GI50 for the entries that follow.

COc1cc(/C=C2\CCC(C)(CN(C)C)C2=O)cc(OC)c1OC (centres undefined)    > 58.3 µM (inactive)
C=CCNC(=O)NNC(O)(C(=O)OCC)C(F)(F)F (centres undefined)    > 100 µM (inactive)
Cn1c(O)c(C2=Nc3ccccc3C2=O)c2ccccc21    > 100 µM (inactive)
Cc1ccc2nc(-c3ccc(C(C)(C)C)cc3)oc(=O)c2c1    20 µM (inactive)

// for each compound below, give its GI50
1. Cc1ccccc1C1CC(=O)CC(c2ccccc2C)C12C(=O)NC(=O)NC2=O (centres undefined)
2. NC(CCc1ncc(C(=O)O)s1)C(=O)O (centres undefined)

Result block:
1. > 100 µM (inactive)
2. > 100 µM (inactive)

Take each entry in turn and give its GI50.
1. CC(C)CNC(=O)Cn1c2c(c3ccccc31)CCCC2
2. CC(C)C.C[N+](C)(C)C.OC(c1ccccc1)(C(F)(F)F)C(F)(F)F.OC(c1ccccc1)(C(F)(F)F)C(F)(F)F.[SiH3-]
3. COC(OC)c1cccc2c1C(=O)CCC1(O)c3ccccc3C1C2 (centres undefined)
4. C=CCOC1=C(OC(C)=O)C(C2COC(C)(C)O2)OC1=O (centres undefined)
5. c1ccc2c(c1)ncn2CCn1ccnc1
6. O=c1ccn(C2(CO)C=C(CO)C(O)C2O)c(=O)[nH]1 (centres undefined)
7. CC(C)(C)C1CCC2(CC1)c1[nH]c3ccccc3c1C1(CCC(C(C)(C)C)CC1)c1[nH]c3ccccc3c12 (centres undefined)

Result block:
71 µM (inactive)
3.73 µM (inactive)
> 100 µM (inactive)
20.1 µM (inactive)
> 100 µM (inactive)
> 25.7 µM (inactive)
> 100 µM (inactive)

GI50 reported for this compound `CC(=O)NNc1nc(C)c(C(=O)NNC(=O)C(=O)Nc2ccc(Cl)cc2)s1` : > 100 µM (inactive)

###

- System: IGROV-1
- TEST SUMMARY: NCI tumour cell line growth inhibition, 48 h
Calls of active or inactive are those of the source. Rule as the data show it: active = GI50 up to about 1.1 µM and inactive = higher.
Assign GI50 to each entry below.

Solved entries:
O=C1C2Cc3ccccc3CN2C(=O)N1CN1CCN(CN2C(=O)C3Cc4ccccc4CN3C2=O)CC1 (stereo unspecified)    > 100 µM (inactive)
COc1ccc(S(=O)(=O)N/N=C/c2cc(I)cc([N+](=O)[O-])c2O)cc1OC    37.7 µM (inactive)
Cc1c(-c2nc3ccccc3[nH]2)c(=O)n(-c2ccccc2)n1C    > 100 µM (inactive)

Give GI50 for each of the items listed below.
1. C=CCOCn1ccc(NC(=O)c2ccccc2)nc1=O
2. C=CCNC(=O)NNC(O)(C(=O)OCC)C(F)(F)F (stereo unspecified)
3. C=C(C)C(O)C(O)C[C@@H](C)C1CC[C@]23C[C@]12CCC1[C@@]2(C)CCC(OC(C)=O)C(C)(C)C2CC(OC2OC(CO)C(O)C(O)C2O)[C@]13C (stereo partly specified)
4. O=c1c2cc(-c3ccccc3)sc2nc2n1N=C(c1ccccc1)CS2
5. COc1ccc(OC)c2sc(N3C(=O)/C(=C/c4cccc([N+](=O)[O-])c4)N=C3c3ccccc3)nc12
6. COc1cc(CCNC2=CC(=O)c3ncccc3C2=O)ccc1O
7. CN(C)CC(CC1=C(CC(CN(C)C)N(C)C)CCC1)N(C)C (stereo unspecified)

Result block:
["> 100 µM (inactive)", "> 100 µM (inactive)", "15.3 µM (inactive)", "> 10 µM (inactive)", "43.4 µM (inactive)", "2.29 µM (inactive)", "> 100 µM (inactive)"]

###

For each of the molecules below, state its GI50.
- Tested on: 786-0
- TEST SUMMARY: NCI tumour cell line growth inhibition, 48 h
Active and inactive are the calls of the source. Cut-off read from the data, not from the text of the source: active = GI50 up to about 1.1 µM and inactive = higher.

Check out these entries, answers already filled in.
NNC1=Nc2ccc(Cl)cc2C(=S)N2CSCC12 (stereo unspecified)    > 100 µM (inactive)
O=c1[nH]nc(Cc2ccccc2)[nH]1    > 100 µM (inactive)
CC1(C)[C@@H](Cn2nnc3c(N)ncnc32)CC[C@@]1(C)CO    > 100 µM (inactive)
CC1(O)C(C)(O)C(C)(O)C1(C)O (stereo unspecified)    > 100 µM (inactive)
C/C(=C\c1ccccc1)C(O)C(=O)c1nc2ccc(Cl)cc2nc1O (stereo unspecified)    > 100 µM (inactive)
O=C1C(=O)N(c2cc(Cl)ccc2Cl)C(=O)C(=O)C1c1nc2ccccc2o1    > 100 µM (inactive)
O=C1NC(=O)C(C(CC(=O)c2ccc(Cl)cc2)c2ccc(Cl)cc2)C(=O)N1 (stereo unspecified)    > 100 µM (inactive)
CN(C)Cc1cc(/N=N/c2ccccc2)ccc1O    65.5 µM (inactive)

Batch: GI50 for all items listed.
1. CCCCCCCCCCCCCCCCCCOP(=O)([O-])OC1CC[N+](C)(C)CC1 [PERIFOSINE]
2. COc1cc(/C=C2\CCC(C)(CN(C)C)C2=O)cc(OC)c1OC (stereo unspecified)
3. Cc1nn(-c2ccccc2)c(C)c1/C=N/NC(=O)c1sc(=S)n(-c2ccccc2)c1N

Result block:
1. 2.73 µM (inactive)
2. > 100 µM (inactive)
3. 3.78 µM (inactive)
